Hello, the source for this data is PubChem BioAssay AID651599, in case you need it.

target: Tumor susceptibility gene 101 protein (Homo sapiens) (UniProt Q99816); experiment: qHTS Assay for Iinhibitors of HIV-1 Budding by Blocking the Interaction of PTAP/TSG101: Hit Validation in TR assay; settings: Tsg101 binding domain + Texas Red-labeled PTAP peptide, fluorescence polarization, 20 min; series mostly up to 57.5 µM
Sequence (Q99816 whole entry, looked up, the tested form may be a part): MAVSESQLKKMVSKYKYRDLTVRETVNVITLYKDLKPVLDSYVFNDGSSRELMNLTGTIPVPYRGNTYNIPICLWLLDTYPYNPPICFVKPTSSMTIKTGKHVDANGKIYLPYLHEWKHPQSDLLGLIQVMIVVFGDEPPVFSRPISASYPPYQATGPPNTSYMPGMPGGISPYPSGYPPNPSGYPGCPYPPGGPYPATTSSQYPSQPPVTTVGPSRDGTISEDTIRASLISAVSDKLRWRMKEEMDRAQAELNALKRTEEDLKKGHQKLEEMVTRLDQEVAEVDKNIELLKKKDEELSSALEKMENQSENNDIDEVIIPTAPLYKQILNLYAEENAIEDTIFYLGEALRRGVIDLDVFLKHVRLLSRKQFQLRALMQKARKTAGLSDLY
Results filed as inconclusive are left out. Activity calls are given as the source filed them. Calls follow the shape of the dose curve; as a rule, active = well fitted inhibition curve with a large enough effect; inconclusive = small, poorly fitted or top-dose-only effect; inactive = no such curve, though single readings can be large or run the other way.

{"columns": ["Compound", "outcome"],
 "data": [
  ["O=C(CN1C(=O)NC(Cc2c[nH]c3ccccc23)C1=O)Nc1ccccc1C(F)(F)F (stereo not drawn)", "inactive"],
  ["C=C1CCN(c2ccc(C(=O)O)cc2[N+](=O)[O-])CC1", "inactive"],
  ["C=CCOn1c(=O)c(-c2cc3ccccc3o2)[n+]([O-])c2ccccc21", "inactive"]
]}
